Assign log10 of IC50 to each entry below.
# Assay System: Recombinant Human NF-kappaB-Inducing Kinase (NIK/MAP3K14) (Homo sapiens)
# Sequence (Q99558 whole entry): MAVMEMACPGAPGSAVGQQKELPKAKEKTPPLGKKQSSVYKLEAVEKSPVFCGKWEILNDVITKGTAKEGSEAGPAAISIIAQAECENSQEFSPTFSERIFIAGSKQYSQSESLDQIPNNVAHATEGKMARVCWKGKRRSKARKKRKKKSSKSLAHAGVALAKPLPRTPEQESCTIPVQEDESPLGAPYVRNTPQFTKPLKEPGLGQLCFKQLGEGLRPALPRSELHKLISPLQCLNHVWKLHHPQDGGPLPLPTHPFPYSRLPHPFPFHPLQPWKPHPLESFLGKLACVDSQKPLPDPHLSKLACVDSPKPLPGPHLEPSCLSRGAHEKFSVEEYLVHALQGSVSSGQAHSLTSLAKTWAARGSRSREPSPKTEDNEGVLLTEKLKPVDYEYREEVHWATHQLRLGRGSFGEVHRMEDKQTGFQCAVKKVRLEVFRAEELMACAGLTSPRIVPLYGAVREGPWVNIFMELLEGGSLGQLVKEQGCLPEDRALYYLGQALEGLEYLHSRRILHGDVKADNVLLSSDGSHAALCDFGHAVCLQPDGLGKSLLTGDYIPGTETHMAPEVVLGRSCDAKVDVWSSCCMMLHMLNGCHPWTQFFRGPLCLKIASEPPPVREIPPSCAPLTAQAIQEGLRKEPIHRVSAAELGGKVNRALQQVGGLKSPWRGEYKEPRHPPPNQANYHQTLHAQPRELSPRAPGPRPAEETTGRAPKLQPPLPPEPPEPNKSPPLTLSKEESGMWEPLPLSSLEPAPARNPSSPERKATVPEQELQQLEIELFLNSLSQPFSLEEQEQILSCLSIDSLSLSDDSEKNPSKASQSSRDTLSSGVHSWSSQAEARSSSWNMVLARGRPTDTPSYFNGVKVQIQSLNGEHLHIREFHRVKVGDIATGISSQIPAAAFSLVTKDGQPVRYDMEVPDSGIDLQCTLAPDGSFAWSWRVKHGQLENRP
# Procedure Text: Biological Assay A: inhibition of recombinant human NIK/MAP3K14 activity (MSD, MBP substrate)
# Experimental Setup: 25 μM ATP, 10 nM NIK/MAP3K14, 1 h at 25° C.; averaged over all batches; read-out: Biochemical (MSD MBP) IC50
Reminder: these figures are log10 of reported IC50, in nM before transformation.

Return log10 of IC50 measured with Recombinant Human NF-kappaB-Inducing Kinase (NIK/MAP3K14) (Homo sapiens) given this compound: "Nc1nccc(-n2ccc3cnc(C#CC4(O)CCCC4)cc32)n1"
0.95

Return log10 of IC50 measured with Recombinant Human NF-kappaB-Inducing Kinase (NIK/MAP3K14) (Homo sapiens) given this compound: "Cc1cnc(N)nc1-n1ccc2cnc(C#CC(C)(C)O)cc21"
2.06

Return log10 of IC50 measured with Recombinant Human NF-kappaB-Inducing Kinase (NIK/MAP3K14) (Homo sapiens) given this compound: CC(CO)c1cn(-c2ccnc(N)n2)c2cc(C#CC(C)(C)O)ncc12 (centres unmarked)
1.30

Return log10 of IC50 measured with Recombinant Human NF-kappaB-Inducing Kinase (NIK/MAP3K14) (Homo sapiens) given this compound: "CC(C)(O)C#Cc1cc2c(cn1)c(CCC(C)(C)O)cn2-c1ccnc(N)n1"
1.11

Return log10 of IC50 measured with Recombinant Human NF-kappaB-Inducing Kinase (NIK/MAP3K14) (Homo sapiens) given this compound: "CC(C)(O)CCc1cn(-c2nc(N)ncc2F)c2cc(C#CC3(O)CCCC3)ncc12"
1.04

###

Assign pEC50 to each entry below.
# Test system: JJN-3 cells
# Procedure Text: Biological Assay C: antiproliferative activity on JJN-3 cells (CellTiter-Glo)
# Assay type: cell-based
# Experimental Setup: Homo sapiens, 72 hr treatment
Here pEC50 is given on a logarithmic scale as minus log10 of the concentration in mol/L.

Could you share which pEC50 value was measured for CC(C)(O)C#Cc1cc2c(cn1)c(/C=C/C#N)cn2-c1ccnc(N)n1 [Compound 35] ?
6.38

Could you share which pEC50 value was measured for CC(C)c1cn(-c2ccnc(N)n2)c2cc(C#CC(C)(C)O)ncc12 [Compound 22] ?
7.31

Could you share which pEC50 value was measured for CC(C)(O)C#Cc1cc2c(cn1)c(CCCO)cn2-c1ccnc(N)n1 [Compound 28] ?
6.79

Could you share which pEC50 value was measured for CC(C)(O)C#Cc1cc2c(cn1)c(CCCO)cn2-c1nc(N)ncc1F [Compound 29] ?
6.53

Could you share which pEC50 value was measured for CC(C)(O)C#Cc1cc2c(cn1)c(CC#N)cn2-c1ccnc(N)n1 [Compound 20] ?
6.72

Could you share which pEC50 value was measured for CC(O)(C#Cc1cc2c(ccn2-c2nc(N)ncc2Cl)cn1)c1nccs1 (stereo not drawn) [Compound 10] ?
5.92

Could you share which pEC50 value was measured for COCc1cn(-c2ccnc(N)n2)c2cc(C#CC(C)(C)O)ncc12 [Compound 18] ?
6.50

Could you share which pEC50 value was measured for CCCCOCc1cn(-c2ccnc(N)n2)c2cc(C#CC(C)(C)O)ncc12 [Compound 17] ?
6.48

Could you share which pEC50 value was measured for CC(C)(O)C#Cc1cc2c(cn1)c(CCC(C)(C)O)cn2-c1nc(N)ncc1F [Compound 33] ?
5.76
